Data origin: PubChem BioAssay (NCI)

- System: K-562 leukemia
Mark one answer only. Choices: active, inactive

input_smiles=c1ccc2nc3c(cc2c1)Sc1cc2ccccc2[n+]2c1N3CC2 assigned_class=inactive
input_smiles=Cc1nc2ccc(Nc3nc(Cl)nc(Nc4ccc(F)cc4)n3)cc2n1Cc1ccccc1 assigned_class=inactive
input_smiles=CCO.CCO.Oc1ccc(Nc2ncns2)cc1.Oc1ccc(Nc2ncns2)cc1.[Ti] assigned_class=inactive

Task item: How did this test come out for COc1cccc(C(=O)c2sc(Nc3ccc(N4CCN(C(C)C)CC4)cc3)nc2N)c1 ?
Reply: inactive

Task item: How did this test come out for CCN(Cc1cccnc1)c1ccc(CO)c(Cl)c1 ?
Reply: inactive

Task item: How did this test come out for CS(=O)(=O)Nc1ccc(Nc2c3ccccc3nc3cc([N+](=O)[O-])ccc23)cc1 ?
Reply: inactive

* * *

- Tested on: UO-31 renal
- measurement_protocol: NCI tumour cell line growth inhibition, 48 h
measure: TGI

The cases that follow already have their TGI on record.
compound="CCOC(=O)C1C(=O)CN2CCc3c([nH]c4ccccc34)C12C(=O)OCC (stereo not given)" target_system="UO-31 renal" measure=TGI measured_result="> 100 µM"
compound=OCc1cn(Cc2ccc(Cl)cc2)c2ccccc12 target_system="UO-31 renal" measure=TGI measured_result="13 µM"
compound=O=C(Cc1csc2nc(-c3ccc(Br)cc3)cn12)N/N=C/c1ccccc1 target_system="UO-31 renal" measure=TGI measured_result="> 100 µM"
compound=CC(=O)NNc1nc(C)c(C(=O)NNC(=O)C(=O)Nc2c(C)cccc2C(C)C)s1 target_system="UO-31 renal" measure=TGI measured_result="> 100 µM"
compound=CCCCCCSC[C@H](OC(C)=O)[C@@H](OC(C)=O)[C@@H](OC(C)=O)[C@@H](COC(C)=O)OC(C)=O target_system="UO-31 renal" measure=TGI measured_result="> 100 µM"

Task item: Find the measured TGI: item CCOC(=O)c1nnsc1NC(=O)NCCCCCCn1c(=O)n(CCCCCCNC(=O)Nc2snnc2C(=O)OCC)c(=O)n(CCCCCCNC(=O)Nc2snnc2C(=O)OCC)c1=O , target or system UO-31 renal.
Reply: > 100 µM

Task item: Find the measured TGI: item O=c1cnnc2sc(=S)[nH]n12 , target or system UO-31 renal.
Reply: 52.1 µM

Task item: Find the measured TGI: item CCc1ccccc1NC(=O)C1=C(C)NC(C)=C(C(=O)Nc2ccccc2CC)C1c1cccc([N+](=O)[O-])c1 , target or system UO-31 renal.
Reply: > 100 µM

Task item: Find the measured TGI: item NC(=O)c1ncn2c1CNC(=O)C2 , target or system UO-31 renal.
Reply: > 100 µM

* * *

- Test system: SR leukemia
- measurement_protocol: NCI tumour cell line growth inhibition, 48 h
measure: TGI

The cases that follow already have their TGI on record.
molecule="CN(C)c1ccc(C(C#N)NNC(=O)Cc2ccccc2)cc1 (stereo unspecified)" measured_result="> 100 µM"
molecule="CN(C)c1ccc(C2SCC(=O)N2c2nc3cc4sc(N5C(=O)CSC5c5ccc(N(C)C)cc5)nc4cc3s2)cc1 (stereo unspecified)" measured_result="> 100 µM"
molecule=O=C(NCc1ccccc1)c1cc2ccccc2oc1=Nc1ccccc1F measured_result="> 100 µM"
molecule=CCCCCNC(=O)c1cc2cc(CCl)ccc2oc1=O measured_result="> 100 µM"
molecule=COc1ccc(/C=N/Nc2nc(-c3cc4oc(=O)n(C)c4cc3Cl)cs2)cc1OC measured_result="> 100 µM"
molecule="CCCCCCCC/C=C(\\Br)C(O)C(Br)Br (stereo unspecified)" measured_result="> 100 µM"
molecule="C=C1C(=O)OC2C1C(=O)C/C(C)=C/CCC1(C)OC21 (stereo unspecified)" measured_result="> 100 µM"
molecule=COc1cccc(C(=O)c2sc(Nc3ccc(N4CCN(C(C)C)CC4)cc3)nc2N)c1 measured_result="> 7.24 µM"

Task item: Data request, read-out TGI, for OC1c2c(ccc3c2CCC3)CC12Cc1ccccc1C2 (stereo unspecified)
Reply: 44.6 µM

Task item: Data request, read-out TGI, for O=C(O)/C=C/C=C/c1ccc2c(c1)OCO2
Reply: > 100 µM

Task item: Data request, read-out TGI, for CC(C)=CC1CC(=O)C1(C)Sc1ccccc1 (stereo unspecified)
Reply: 41.4 µM

* * *

As shown below, each of these compounds has a reported TGI value.
- Tested on: BT-549 breast
- measurement_protocol: NCI tumour cell line growth inhibition, 48 h

The cases that follow already have their TGI on record.
compound=O=C(Cc1csc2nc(-c3ccc(Br)cc3)cn12)N/N=C/c1ccccc1 measured_result="49.1 µM"
compound=Cc1cc(C)c2ccc(N3CCNCC3)nc2n1 measured_result="> 100 µM"
compound=COc1ccc(-n2c(N)c(C#N)c(C#N)c2-c2cccc([N+](=O)[O-])c2)cc1 measured_result="> 100 µM"
compound=Cc1cc(-c2ccc[nH]2)on1 measured_result="> 100 µM"

Task item: Find the measured TGI: item O=C(O)CCn1cnc2c(=S)nc[nH]c21 , target or system BT-549 breast.
Reply: > 100 µM

Task item: Find the measured TGI: item CCOc1ccccc1N1CSc2nnc(-c3ccccc3)n2C1 , target or system BT-549 breast.
Reply: > 100 µM

Task item: Find the measured TGI: item CC(C)(C)OC(=O)NC(Cc1ccc(OCc2ccccc2)cc1)C(=O)NC(COCc1ccccc1)C(=O)Oc1c(Cl)c(Cl)c(Cl)c(Cl)c1Cl (centres undefined) , target or system BT-549 breast.
Reply: 38.3 µM

Task item: Find the measured TGI: item COC(=O)C1(Cc2ccccc2)Cc2cc3c(cc2C1)CCC3 , target or system BT-549 breast.
Reply: > 100 µM

Task item: Find the measured TGI: item COc1cc2cc(c1Cl)N(C)C(=O)C[C@H](OC(=O)[C@H](C)N(C)C(=O)CCS)C[C@]1(C)O[C@H]1[C@H](C)[C@@H]1C[C@@](O)(NC(=O)O1)[C@H](OC)/C=C/C=C(\C)C2 , target or system BT-549 breast.
Reply: 0.134 µM

* * *

- System: MCF7 breast
- measurement_protocol: NCI tumour cell line growth inhibition, 48 h; in the data active = GI50 below about 0.43 µM; inactive = the rest
Mark one answer only. Choices: True for active, False for inactive

compound=CS(=O)(=O)c1ccc(Oc2cc(F)cc(C#N)c2)c2c1[C@H](O)[C@H](F)[C@H]2F assigned_class=False
compound=Cc1cc2c(cc1C)[n+](=O)c(C(=O)C(C)(C)C)c(C(F)(F)F)n2[O-] assigned_class=False
compound=O=C(c1ccccc1)c1c(C(F)(F)F)n([O-])c2ccc(F)cc2[n+]1=O assigned_class=True
compound=COc1cc2c3c(n(CCCn4ccnc4)c(=O)c2cc1OC)-c1cc2c(cc1C3=O)OCO2 assigned_class=True

Task item: How did this test come out for CCOC(=O)c1ccc2c(c1)nc(-c1ccc(Cl)cc1)n2-c1cc(C(C)(C)C)[nH]n1 ?
Reply: False

Task item: How did this test come out for CCOC(=O)C1=C(C)N=C2SC=C(c3ccccc3)N2[C@H]1c1cn[nH]c1-c1ccc(Cl)cc1 ?
Reply: False

Task item: How did this test come out for COc1cc2c(cc1OC)[C@@H]1C(=O)c3cc4c(cc3[C@@H]1N(CCN(C)C)C2=O)OCO4 ?
Reply: True

* * *

As shown below, each of these molecules has a reported GI50 value.
- Tested on: A549 NSCLC

The cases that follow already have their GI50 on record.
input_smiles=CCO.CCO.Oc1ccc(Nc2ncns2)cc1.Oc1ccc(Nc2ncns2)cc1.[Ti] measured_result="43600 nM"
input_smiles=CCCCCCCCCCCC[C@@H](O)[C@H]1CC[C@H]([C@H](O)CCCC[C@H](O)CCCCC[C@@H](O)CC2=C[C@H](C)OC2=O)O1 measured_result="1710 nM"
input_smiles=Cc1ccc(C(=Nc2ccccc2)N=P(c2ccccc2)(c2ccccc2)c2ccccc2)cc1 measured_result="1430 nM"
input_smiles=CCN(Cc1ccccc1F)c1ccc(CO)c(Cl)c1 measured_result="1030 nM"
input_smiles=OCCCc1n(Cc2ccc3ccccc3c2)c2ccccc2[n+]1Cc1ccc2ccccc2c1 measured_result="6970 nM"
input_smiles=O=C(O)CN(CCN(CC(=O)O)CC(=O)O)CC(=O)O measured_result="> 100000 nM"
input_smiles=CS(=O)(=O)c1ccc(Oc2cc(F)cc(C#N)c2)c2c1[C@H](O)[C@H](F)[C@H]2F measured_result="> 100000 nM"
input_smiles=COc1cc2c(cc1OC)[C@@H]1C(=O)c3cc4c(cc3[C@@H]1N(CCN(C)C)C2=O)OCO4 measured_result="171 nM"

Task item: Data request, read-out GI50, for C/C(=N\NC(=O)c1ccc(C(C)(C)C)cc1)c1ccc(O)cc1O
Reply: 751 nM

Task item: Data request, read-out GI50, for COc1cc2c3c(n(CCCn4ccnc4)c(=O)c2cc1OC)-c1cc2c(cc1C3=O)OCO2
Reply: 52.8 nM

Task item: Data request, read-out GI50, for O=C(c1ccccc1)c1c(C(F)(F)F)n([O-])c2ccc(F)cc2[n+]1=O
Reply: 749 nM

Task item: Data request, read-out GI50, for COc1cc(/C=C2\CN(S(=O)(=O)c3ccc(C)cc3)C/C(=C\c3cc(CN4CCOCC4)c(O)c(OC)c3)C2=O)cc(CN2CCOCC2)c1O
Reply: 13000 nM
